MIC values by entry
tested on: H. influenzae ATCC 49247; assay: MIC determination, broth microdilution (CLSI); format: cell-based; conditions: Haemophilus influenzae, ATCC49247, strain 12; broth microdilution; read-out: MIC strain 12 (H. influenzae ATCC 49247)
assay readout: MIC

{"compound": "CN(C)CCNC(=N)c1ccc(OCCO/N=C(\\C(=O)N[C@@H]2C(=O)N(OS(=O)(=O)O)C2(C)C)c2csc(N)n2)cc1", "result": "≤ 0.063 µg/mL"}
{"compound": "CC1(C)[C@H](NC(=O)/C(=N\\O[C@@H](COc2ccc(C(=N)NC3CC3N)cc2)C(=O)O)c2csc(N)n2)C(=O)N1OS(=O)(=O)O (single isomer, unassigned) [Example 100A]", "result": "≤ 0.063 µg/mL"}
{"compound": "C[C@H]1[C@H](NC(=O)/C(=N\\OCCOc2ccc(C(=N)N)cc2)c2nsc(N)n2)C(=O)N1S(=O)(=O)O", "result": "8 µg/mL"}

* * *

system: B. fragilis 6688; test: MIC determination, broth microdilution (CLSI); type: cell-based; conditions: Bacteroides fragilis, 6688, strain 15; broth microdilution; read-out: MIC strain 15 (B. fragilis 6688)
MIC values by entry
assay readout: MIC (µg/mL)

{"compound": "CC1(C)[C@H](NC(=O)/C(=N\\OCCOc2ccc(C(=N)N[C@H](CN)CO)cc2)c2csc(N)n2)C(=O)N1OS(=O)(=O)O [Example 85]", "assay readout": "MIC", "uom": "µg/mL", "recorded number": 4}
{"compound": "C[C@H]1[C@H](NC(=O)/C(=N\\OCCOc2ccc(C(=N)N)cc2)c2csc(N)n2)C(=O)N1OS(=O)(=O)O [Example 47]", "assay readout": "MIC", "uom": "µg/mL", "recorded number": 16}
{"compound": "N=C(N)c1ccc(OCCO/N=C(\\C(=O)N[C@@H]2C(=O)N(S(=O)(=O)O)[C@@H]2C(N)=O)c2csc(N)n2)cc1 [Example 66]", "assay readout": "MIC", "uom": "µg/mL", "recorded number": 16}
{"compound": "CC1(C)[C@H](NC(=O)/C(=N\\OC(CO)COc2ccc(C(=N)N)cc2)c2csc(N)n2)C(=O)N1OS(=O)(=O)O (mixture of isomers) [Example 45B]", "assay readout": "MIC", "uom": "µg/mL", "recorded number": 4}
{"compound": "CN1CC[C@H](NC(=N)c2ccc(OC[C@H](O/N=C(\\C(=O)N[C@@H]3C(=O)N(OS(=O)(=O)O)C3(C)C)c3csc(N)n3)C(=O)O)cc2)C1 [Example 101]", "assay readout": "MIC", "uom": "µg/mL", "recorded number": 8}
{"compound": "CC1(C)[C@H](NC(=O)/C(=N\\OCCOc2ccc(C(=N)NC3CNNC3)cc2)c2csc(N)n2)C(=O)N1OS(=O)(=O)O [Example 92]", "assay readout": "MIC", "uom": "µg/mL", "recorded number": 8}
{"compound": "C[C@H]1[C@H](NC(=O)/C(=N\\OCCOc2ccc(C(=N)N)cc2)c2nsc(N)n2)C(=O)N1S(=O)(=O)O [Example 52]", "assay readout": "MIC", "uom": "µg/mL", "recorded number": 32}
{"compound": "C[C@H]1[C@H](NC(=O)/C(=N\\OCCOc2nnc(C(=N)N)s2)c2csc(N)n2)C(=O)N1S(=O)(=O)O [Example 65]", "assay readout": "MIC", "uom": "µg/mL", "recorded number": 16}
{"compound": "CC1(C)[C@H](NC(=O)/C(=N\\OCCOc2ccc(C(=N)NCC[N+]3(C)CCCC3)cc2)c2csc(N)n2)C(=O)N1OS(=O)(=O)O.O=C([O-])C(F)(F)F [Example 79]", "assay readout": "MIC", "uom": "µg/mL", "recorded number": 4}
{"compound": "C[C@H]1[C@H](NC(=O)/C(=N\\OCCOc2ccc(C(=N)N)cc2COC=O)c2csc(N)n2)C(=O)N1S(=O)(=O)O [Example 60]", "assay readout": "MIC", "uom": "µg/mL", "recorded number": 16}
{"compound": "CC1(C)[C@H](NC(=O)/C(=N\\O[C@@H](COc2ccc(C(=N)N[C@@H]3CCNC3)cc2)C(=O)O)c2csc(N)n2)C(=O)N1OS(=O)(=O)O [Example 96]", "assay readout": "MIC", "uom": "µg/mL", "recorded number": 8}
{"compound": "C[C@@H]1[C@H](NC(=O)/C(=N\\OCCCOc2ccc(C(=N)N)cc2)c2csc(N)n2)C(=O)N1S(=O)(=O)O [Example 48]", "assay readout": "MIC", "uom": "µg/mL", "recorded number": 16}
{"compound": "CC(=N)N1CC[C@H](NC(=N)c2ccc(OCCO/N=C(\\C(=O)N[C@@H]3C(=O)N(OS(=O)(=O)O)C3(C)C)c3csc(N)n3)cc2)C1 [Example 43]", "assay readout": "MIC", "uom": "µg/mL", "recorded number": 8}

* * *

MIC strain 12 (H. influenzae ATCC 49247) values by entry
test system: H. influenzae ATCC 49247; experiment: MIC determination, broth microdilution (CLSI); format: cell-based; conditions: strain 12; broth microdilution

{"molecule": "CC1(C)[C@H](NC(=O)/C(=N\\OC(CCO)COc2ccc(C(=N)N)cc2)c2csc(N)n2)C(=O)N1OS(=O)(=O)O (single isomer, unassigned) [Example 81B]", "MIC strain 12 (H. influenzae ATCC 49247)": "2 µg/mL"}
{"molecule": "CC1(C)[C@H](NC(=O)/C(=N\\OC(COc2ccc(C(=N)NCCN)cc2)C(=O)O)c2csc(N)n2)C(=O)N1OS(=O)(=O)O (mixture of isomers) [Example 44B]", "MIC strain 12 (H. influenzae ATCC 49247)": "0.5 µg/mL"}
{"molecule": "CC1(C)[C@H](NC(=O)/C(=N\\OCC(Oc2ccc(C(=N)N)cc2)C(=O)O)c2csc(N)n2)C(=O)N1OS(=O)(=O)O (single isomer, unassigned) [Example 87B]", "MIC strain 12 (H. influenzae ATCC 49247)": "0.125 µg/mL"}

* * *

tested on: S. pneumoniae 113; assay: MIC determination, broth microdilution (CLSI); type: cell-based; details: Streptococcus pneumoniae, 113, strain 13; broth microdilution; read-out: MIC strain 13 (S. pneumoniae 113)
assay readout: MIC (µg/mL)

{"compound": "CC1(C)[C@H](NC(=O)/C(=N\\OC(CCO)COc2ccc(C(=N)N)cc2)c2csc(N)n2)C(=O)N1OS(=O)(=O)O (single isomer, unassigned) [Example 81A]", "qualifier operator": "=", "recorded number": 0.25}
{"compound": "CC1(C)[C@H](NC(=O)/C(=N\\O[C@@H](COc2ccc(C(=N)NCCNc3ncccn3)cc2)C(=O)O)c2csc(N)n2)C(=O)N1OS(=O)(=O)O [Example 110]", "qualifier operator": "=", "recorded number": 0.25}
{"compound": "CC1(C)[C@H](NC(=O)/C(=N\\OCCOc2ccc(C3=NCC(CN)N3)cc2)c2csc(N)n2)C(=O)N1OS(=O)(=O)O (stereo partly drawn) [Example 91]", "qualifier operator": "≤", "recorded number": 0.063}
{"compound": "CC1(C)[C@H](NC(=O)/C(=N\\OC(COc2ccc(C(=N)NC3CCCNC3)cc2)C(=O)O)c2csc(N)n2)C(=O)N1OS(=O)(=O)O (stereo in doubt) [Example 89]", "qualifier operator": "=", "recorded number": 0.5}
{"compound": "C[C@H]1[C@H](NC(=O)/C(=N\\OCCOc2ccc(C(=N)NNC=O)cc2)c2csc(N)n2)C(=O)N1S(=O)(=O)O [Example 63]", "qualifier operator": "=", "recorded number": 0.5}
{"compound": "CC1(C)[C@H](NC(=O)/C(=N\\OC(CO)COc2ccc(C(=N)N)cc2)c2csc(N)n2)C(=O)N1OS(=O)(=O)O (mixture of isomers) [Example 45B]", "qualifier operator": "=", "recorded number": 0.125}

* * *

system: Bacteria; assay: MIC determination in combination with β-lactamase inhibitors (constant 4 μg/mL); type: cell-based; conditions: strain 19; E. coli J62-TEM-3 + 4 μg/mL clavulanic acid
assay readout: MIC strain 19 (E. coli J62-TEM-3 + 4 μg/mL clavulanic acid) (µg/mL)

{"compound": "C[C@H]1[C@H](NC(=O)/C(=N\\OCCOc2ccc(C(=N)NNC=O)cc2)c2csc(N)n2)C(=O)N1S(=O)(=O)O", "uom": "µg/mL", "recorded number": 0.25}
{"compound": "CC1(C)[C@H](NC(=O)/C(=N\\OCCOc2ccc(C(=N)NCC[N+]3(C)CCCC3)cc2)c2csc(N)n2)C(=O)N1OS(=O)(=O)O.O=C([O-])C(F)(F)F", "uom": "µg/mL", "recorded number": 0.5}
{"compound": "C[C@H]1[C@H](NC(=O)/C(=N\\OCc2ccc(C(=N)N)cc2)c2csc(N)n2)C(=O)N1S(=O)(=O)O", "uom": "µg/mL", "recorded number": 1}
{"compound": "CC1(C)[C@H](NC(=O)/C(=N\\OC(CO)COc2ccc(C(=N)N)cc2)c2csc(N)n2)C(=O)N1OS(=O)(=O)O (mixture of isomers) [Example 45A]", "uom": "µg/mL", "recorded number": 0.5}
{"compound": "CC1(C)[C@H](NC(=O)/C(=N\\OC(CCO)COc2ccc(C(=N)N)cc2)c2csc(N)n2)C(=O)N1OS(=O)(=O)O (single isomer, unassigned) [Example 81A]", "uom": "µg/mL", "recorded number": 8}
